We begin with a simple list: items and their reported IC50.
- Tested on: SMN2 CJ mRNA
- Method Description: Gene panel canonical junction qPCR assay, SMN2
- Assay type: cell-based
- Condition Set: decrease in CJ mRNA levels, gene panel; read-out: SMN2 IC50
Readout Label: IC50

| Molecule | Assay Result |
| --- | --- |
| Cc1cn2nc(-c3ccc4c(c3)CCN(C3CCN(C)C3)C4=O)cc(C)c2n1 (centres unmarked) | 1000 to 10000 nM |
| Cn1cc2cc(-n3cnc4cc(C5=CC6CCC(C5)N6)ccc4c3=O)ccc2n1 (centres unmarked) | > 10000 nM |
| Cc1nc2c(F)cc(-c3ccc4c(c3)CCN(C3CCNCC3)C4=O)cc2o1 | < 100 nM |
| Cc1cn2nc(-c3ccc4c(=O)n(C5CCNCC5)ncc4c3)cc2c(C)n1 | 100 to 1000 nM |
| Cc1cn2cc(-c3ccc4nc(N5CCNC6(CC6)C5)[nH]c(=O)c4c3)cc(F)c2n1 | > 10000 nM |
| Cc1cc(-c2ccc3c(=O)n(C4CCN(C)CC4)cnc3n2)cc2cn(C)nc12 | 1000 to 10000 nM |
| Cc1cn2cc(-c3ccc4c(=O)n(C5CCNCC5)ncc4c3)cc(Cl)c2n1 | < 100 nM |
| Cc1cn2nc(-c3ccc4nc(N5CCNC6(CC6)C5)[nH]c(=O)c4c3)cc(C)c2n1 | 100 to 1000 nM |

* * *

- Tested on: SMN2 CJ mRNA
- Method Description: Gene panel canonical junction qPCR assay, SMN2
- Format: cell-based
- Condition Set: decrease in CJ mRNA levels, gene panel; read-out: SMN2 IC50
Measured IC50, listed per entry for reference.
Readout Label: IC50

| Compound | Test System | Assay Result |
| --- | --- | --- |
| Cn1cc2ccc(-c3ccc4c(=O)n(C5CCNCC5)ncc4c3)cc2n1 | SMN2 CJ mRNA | > 10000 nM |
| Cc1cn2cc(-c3ccc4c(=O)n(C5CCN(C)CC5)cnc4c3)c(C)cc2n1 | SMN2 CJ mRNA | 1000 to 10000 nM |
| Cc1cc(-c2ccc3c(=O)n(N4CCN(C)CC4)cnc3c2)cc2cn(C)nc12 | SMN2 CJ mRNA | 1000 to 10000 nM |
| Cc1cc(-c2nc3ccc(N(C)C4CCN(C)CC4)cc3c(=O)[nH]2)cc2cn(C)nc12 | SMN2 CJ mRNA | 1000 to 10000 nM |
| CN1CC=C(c2ccc3c(=O)n(-c4ccc5nn(C)cc5c4)cnc3c2)CC1 | SMN2 CJ mRNA | > 10000 nM |
| CCN1CCC(N2CCc3cc(-c4cc(C)c5nc(C)cn5n4)ccc3C2=O)CC1 | SMN2 CJ mRNA | 100 to 1000 nM |
| Cc1nc2c(F)cc(-c3ccc4c(=O)n(C5CCNCC5)ncc4c3)cc2o1 | SMN2 CJ mRNA | < 100 nM |
| Cc1cn2cc(-c3ccc4c(=O)n(C5CCNCC5)ncc4c3)cc(F)c2n1 | SMN2 CJ mRNA | < 100 nM |
| Cc1cn2nc(-c3ccc4c(=O)n(C5CCN(C)CC5)cnc4c3)cc(C)c2n1 | SMN2 CJ mRNA | 100 to 1000 nM |
| Cc1cc(-c2ccc3c(=O)n(C4CCNCC4)cnc3c2F)cc2cn(C)nc12 | SMN2 CJ mRNA | < 100 nM |
| CN1CCC(n2cnc3cc(-c4ccc5nn(C)cc5c4)ccc3c2=O)CC1 | SMN2 CJ mRNA | 100 to 1000 nM |
| Cn1cc2cc(-n3cnc4cc(C5=CCNCC5)ccc4c3=O)ccc2n1 | SMN2 CJ mRNA | > 10000 nM |
| Cc1cn2nc(-c3ccc4c(=O)n(C5CCNC5)ncc4c3)cc(C)c2n1 (centres unmarked) | SMN2 CJ mRNA | 100 to 1000 nM |
| Cc1cn2cc(-c3ccc4c(=O)n(C5CCNCC5)ncc4c3)cc(C(F)(F)F)c2n1 | SMN2 CJ mRNA | < 100 nM |
| Cc1cn2nc(-c3ccc4c(=O)n(C5CCNC(C)(C)C5)ncc4c3)cc(C)c2n1 (centres unmarked) | SMN2 CJ mRNA | < 100 nM |
| Cc1cn2cc(-c3ccc4c(c3)CCN(C3CCNCC3)C4=O)c(C)cc2n1 | SMN2 CJ mRNA | 1000 to 10000 nM |
| Cn1cc2cc(-c3ccc4c(c3)CCN(C3CCNCC3)C4=O)cc(F)c2n1 | SMN2 CJ mRNA | > 10000 nM |

* * *

- Tested on: HTT mRNA
- Method Description: Splicing assay (RT-qPCR) monitoring HTT canonical junction (CJ) and alternative junction (AJ) mRNA isoforms
- Format: cell-based
- Condition Set: decrease in CJ mRNA (50% response); A673 or K562 cells, 24 h treatment, top dose 10 uM; read-out: HTT CJ AC50
Readout Label: AC50

| Molecule | Assay Result |
| --- | --- |
| Cc1cn2nc(-c3ccc4c(=O)n(C5CCNCC5)ncc4c3)cc2c(C)n1 | 100 to 1000 nM |
| CN1CCC(n2cnc3cc(-c4cc(F)c5nn(C)cc5c4)ccc3c2=O)CC1 | 1000 to 10000 nM |
| Cc1cn2cc(-c3ccc4c(=O)n(C5CCNCC5)ccc4c3)cc(F)c2n1 | < 100 nM |
| Cc1cn2nc(-c3ccc4c(c3)CCN([C@@H]3CCN[C@H](C)C3)C4=O)cc(C)c2n1 | 1000 to 10000 nM |
| Cc1cn2cc(-c3ccc4c(c3)CCN(C3CCNCC3)C4=O)c(C)cc2n1 | 1000 to 10000 nM |
| Cc1cn2cc(-c3ccc4c(c3)CCN(C3CCNCC3)C4=O)cc(C(F)(F)F)c2n1 | > 10000 nM |
| Cc1cc(-c2ccc3c(=O)n(C4CCNCC4)cnc3c2F)cc2cn(C)nc12 | 1000 to 10000 nM |
| Cc1cn2cc(-c3ccc4c(=O)n(C5CCN(C)CC5)cnc4c3)c(C)cc2n1 | 1000 to 10000 nM |
| O=c1c2ccc(-c3cn[nH]c3)cc2ncn1C1CCNCC1 | > 10000 nM |
| Cc1cn2cc(-c3ccc4c(=O)n(C5CCNCC5)ncc4c3)c(C)cc2n1 | 1000 to 10000 nM |
| Cc1cn2cc(-c3ccc4c(=O)n(C5CCNCC5)ncc4c3)cc(F)c2n1 | < 100 nM |
| Cc1cn2cc(-c3ccc4c(=O)n(C5CCNCC5)ncc4c3)cc(Cl)c2n1 | 100 to 1000 nM |
| Cc1cc(-c2nc3ccc(N(C)C4CCN(C)CC4)cc3c(=O)[nH]2)cc2cn(C)nc12 | > 10000 nM |
| Cc1cn2nc(-c3ccc4c(=O)n(C5CCN(C)CC5)cnc4c3)cc2c(C)n1 | 1000 to 10000 nM |
| Cc1cc(-c2ccc3c(=O)n(C4CCN(C)CC4)cnc3c2F)cc2cn(C)nc12 | > 10000 nM |
| Cc1cn2nc(-c3cc(F)c4c(=O)n(C5CCN(C)CC5)cnc4c3)cc(C)c2n1 | < 100 nM |
| Cc1cn2cc(-c3ccc4c(c3)CCN(C3CCNCC3)C4=O)cc(Cl)c2n1 | 1000 to 10000 nM |
| Cc1cn2cc(-c3ccc4c(c3)CCN(C3CCNCC3)C4=O)nc2c(C)n1 | > 10000 nM |
| CCN1CCC(N2CCc3cc(-c4cc(C)c5nc(C)cn5n4)ccc3C2=O)CC1 | 1000 to 10000 nM |
| Cn1cc2cc(-c3ccc4c(=O)n(C5CCNCC5)cnc4c3)cc(F)c2n1 | 100 to 1000 nM |
| Cc1cn2nc(-c3ccc4nc(NC5CCNCC5)[nH]c(=O)c4c3)cc(C)c2n1 | > 10000 nM |
| CN1CC=C(c2ccc3c(=O)n(-c4ccc5nn(C)cc5c4)cnc3c2)CC1 | > 10000 nM |
| Cc1cn2cc(-c3ccc4c(=O)n(C5CCNCC5)cnc4c3)cc(F)c2n1 | 100 to 1000 nM |
| Cc1cn2nc(-c3ccc4c(=O)n(C5CCNCC5)cnc4c3)cc(C)c2n1 | 100 to 1000 nM |
| Cc1cn2cc(-c3ccc4nc(N5CCNC6(CC6)C5)[nH]c(=O)c4c3)cc(F)c2n1 | > 10000 nM |
| CN1CCN(c2ccc3c(=O)n(-c4ccc5cn(C)nc5c4)cnc3c2)CC1 | > 10000 nM |
| Cc1cn2nc(-c3ccc4c(=O)n([C@@H]5CCN(C)[C@H](C)C5)ncc4c3)cc(C)c2n1 | 100 to 1000 nM |
| CN1CCC(Nc2ccc3c(=O)n(-c4ccc5cn(C)nc5c4)cnc3c2)CC1 | > 10000 nM |
| Cc1cc(-c2ccc3c(=O)n(N4CCN(C)CC4)cnc3c2)cc2cn(C)nc12 | > 10000 nM |
| Cc1cn2nc(-c3ccc4c(=O)n(C5CCNC6(CC6)C5)ncc4c3)cc(C)c2n1 (stereo not drawn) | < 100 nM |
| Cc1cc(-c2cc(F)c3c(=O)n(C4CCN(C)CC4)cnc3c2)cc2cn(C)nc12 | 100 to 1000 nM |
| Cc1cc(-c2ccc3c(=O)n(C4CCNCC4)ncc3c2)cc2cn(C)nc12 | 100 to 1000 nM |
| Cc1cc(-c2ccc3c(=O)n(C4CC(C)(C)NC(C)(C)C4)cnc3n2)cc2cn(C)nc12 | > 10000 nM |
